experiment: Therapeutic index, ratio of CC50 for human CEM-GFP cells to IC50 for antiviral activity against HIV-1 NL4-3 infected in human CEM-GFP cells; assay type: toxicity, cell-based; conditions: read-out: Ratio CC50/IC50
value-type: selectivity ratio
Lab note: record just the number, no unit beside it.

In plain terms, CC(C)NC(=O)Cc1cc(-c2ccccc2)on1 has a documented selectivity ratio of 1660

In plain terms, O=C(Cc1cc(-c2ccccc2)on1)Nc1ccccc1 has a documented selectivity ratio of 79.8

In plain terms, Cc1ccc(NC(=O)Cc2cc(-c3ccccc3)on2)cc1 has a documented selectivity ratio of 507

In plain terms, O=C(Cc1cc(-c2ccccc2)on1)Nc1ccc(F)cc1 has a documented selectivity ratio of 136

In plain terms, CCNC(=O)c1noc(-c2cc(C(C)C)c(O)cc2O)c1-c1ccc(CN2CCOCC2)cc1 has a documented selectivity ratio of 470

In plain terms, O=C(Cc1cc(-c2ccccc2)on1)Nc1ccccc1O has a documented selectivity ratio of 170

In plain terms, Cc1cn([C@H]2C[C@H](N=[N+]=[N-])[C@@H](CO)O2)c(=O)[nH]c1=O has a documented selectivity ratio of 1090

In plain terms, COc1ccc(-c2cc(CC(=O)Nc3cccc(C)c3)no2)cc1 has a documented selectivity ratio of 55.1

====

Give measured inhibition at 0.1 µM for each item. Keep answers brief.
test system: Human immunodeficiency virus 1; experiment: Antiviral activity against HIV1 NL4-3 infected in human TZM-bl cells assessed as reduction in viral replication at 100 nM measured at 48 hrs post-infection by steady-glo reporter gene assay relative to control; assay type: functional; settings: Human immunodeficiency virus 1, NL4-3, TZM-bl
API: value field is a number in %; no unit string.

In plain terms, Cc1cccc(NC(=O)Cc2cc(-c3ccccc3)on2)c1 has a documented inhibition at 0.1 µM of 33.3

In plain terms, Cc1ccc(NC(=O)Cc2cc(-c3cccs3)on2)cc1 has a documented inhibition at 0.1 µM of 56.9

In plain terms, O=C(Cc1cc(-c2ccccc2)on1)Nc1ccc(Cl)cc1 has a documented inhibition at 0.1 µM of 49

In plain terms, COC(=O)c1ccc(NC(=O)Cc2cc(-c3ccccc3)on2)cc1 has a documented inhibition at 0.1 µM of 27.7

In plain terms, CCCNC(=O)Cc1cc(-c2ccccc2)on1 has a documented inhibition at 0.1 µM of 60.9

====

test system: Human immunodeficiency virus 1; experiment: Antiviral activity against HIV-1 NL4-3 infected in human Jurkat J6 cells assessed as suppression of viral replication by measuring reduction in p24 level measured at 72 hrs post-infection by ELISA; type: functional, organism-based; details: Human immunodeficiency virus 1, Jurkat
value-type: pIC50
# log scale: pIC50 equals minus log10 of the concentration in mol/L

In plain terms, CC(C)NC(=O)Cc1cc(-c2ccccc2)on1 has a documented pIC50 of 7.28

====

experiment: Cytotoxicity against human Jurkat J6 cells assessed as reduction in cell viability after 48 hrs by MTT assay; format: cell-based
value-type: CC50 at 48 h (µM)
API: value field is a number in µM; no unit string.

In plain terms, CC(C)NC(=O)Cc1cc(-c2ccccc2)on1 has a documented CC50 at 48 h of 60.3

====

assay: Cytotoxicity against human CEM-GFP cells assessed as reduction in cell viability after 48 hrs by MTT assay; assay type: cell-based
Labelling: CC50 at 48 h reported below 20 µM becomes condition met; at or above becomes condition not met.

Q) Lab note: CC50 at 48 h threshold 20 µM. Does this molecule come in strictly under it? Cc1ccc(NC(=O)Cc2cc(-c3ccccc3)on2)cc1
A) condition not met

Q) Lab note: CC50 at 48 h threshold 20 µM. Does this molecule come in strictly under it? O=C(Cc1cc(-c2ccccc2)on1)Nc1ccccc1O
A) condition not met

Q) Lab note: CC50 at 48 h threshold 20 µM. Does this molecule come in strictly under it? CC(C)NC(=O)Cc1cc(-c2ccccc2)on1
A) condition not met

Q) Lab note: CC50 at 48 h threshold 20 µM. Does this molecule come in strictly under it? COc1ccc(-c2cc(CC(=O)Nc3cccc(C)c3)no2)cc1
A) condition met

Q) Lab note: CC50 at 48 h threshold 20 µM. Does this molecule come in strictly under it? O=C(Cc1cc(-c2ccccc2)on1)Nc1ccc(F)cc1
A) condition met

Q) Lab note: CC50 at 48 h threshold 20 µM. Does this molecule come in strictly under it? CCNC(=O)c1noc(-c2cc(C(C)C)c(O)cc2O)c1-c1ccc(CN2CCOCC2)cc1 [LUMINESPIB]
A) condition not met

Q) Lab note: CC50 at 48 h threshold 20 µM. Does this molecule come in strictly under it? Cc1cn([C@H]2C[C@H](N=[N+]=[N-])[C@@H](CO)O2)c(=O)[nH]c1=O [ZIDOVUDINE]
A) condition met

Q) Lab note: CC50 at 48 h threshold 20 µM. Does this molecule come in strictly under it? O=C(Cc1cc(-c2ccccc2)on1)Nc1ccccc1
A) condition not met

====

assay: Cytotoxicity against human TZM-bl cells assessed as maximum non-cytotoxic concentration after 48 hrs by MTT assay; format: cell-based; settings: read-out: MNCC
Give measured MNTC at 48 h for each item. Keep answers brief.
API: value field is a number in nM; no unit string.

In plain terms, Cc1ccc(NC(=O)Cc2cc(-c3ccccc3)on2)cc1 has a documented MNTC at 48 h of 1000

In plain terms, Cc1ccc(NC(=O)Cc2cc(-c3cccs3)on2)cc1 has a documented MNTC at 48 h of 100

In plain terms, Cc1cccc(NC(=O)Cc2cc(-c3ccccc3)on2)c1 has a documented MNTC at 48 h of 100

In plain terms, O=C(Cc1cc(-c2ccccc2)on1)Nc1ccccc1O has a documented MNTC at 48 h of 1000

====

test system: Human immunodeficiency virus 1; assay: Antiviral activity against HIV-1 NL4-3 infected in human PBMC assessed as suppression of viral replication by measuring reduction in p24 level measured at 72 hrs post-infection by ELISA; type: functional, organism-based; details: Human immunodeficiency virus 1, 72 h
value-type: IC50 (nM)
API: value field is a number in nM; no unit string.

In plain terms, CC(C)NC(=O)Cc1cc(-c2ccccc2)on1 has a documented IC50 of 56.2

====

assay: Therapeutic index, ratio of CC50 for human PBMC to IC50 for antiviral activity against HIV-1 NL4-3 infected in human PBMC; assay type: toxicity; details: read-out: Ratio CC50/IC50
value-type: selectivity ratio
Lab note: record just the number, no unit beside it.

In plain terms, CC(C)NC(=O)Cc1cc(-c2ccccc2)on1 has a documented selectivity ratio of 1210

====

assay: Cytotoxicity against human U937 cells assessed as reduction in cell viability after 48 hrs by MTT assay; format: cell-based, U-937
value-type: CC50 at 48 h
State the value with its unit after it.

In plain terms, CC(C)NC(=O)Cc1cc(-c2ccccc2)on1 has a documented CC50 at 48 h of 56.6 µM

====

assay: Cytotoxicity against human PBMC assessed as reduction in cell viability after 48 hrs by MTT assay; format: cell-based
value-type: CC50 at 48 h (µM)
API: value field is a number in µM; no unit string.

In plain terms, CC(C)NC(=O)Cc1cc(-c2ccccc2)on1 has a documented CC50 at 48 h of 67.9

====

assay: Cytotoxicity against human TZM-bl cells assessed as maximum non-cytotoxic concentration after 48 hrs by MTT assay; assay type: cell-based; settings: read-out: MNCC
Give measured MNTC at 48 h for each item. Keep answers brief.
API: value field is a number in nM; no unit string.

In plain terms, COc1ccc(-c2cc(CC(=O)Nc3cccc(C)c3)no2)cc1 has a documented MNTC at 48 h of 1000

In plain terms, Cc1ccccc1NC(=O)Cc1cc(-c2ccccc2)on1 has a documented MNTC at 48 h of 1000

In plain terms, CC(C)NC(=O)Cc1cc(-c2ccccc2)on1 has a documented MNTC at 48 h of 1000

In plain terms, COc1ccc(NC(=O)Cc2cc(-c3ccccc3)on2)cc1 has a documented MNTC at 48 h of 1000

In plain terms, CCCNC(=O)Cc1cc(-c2ccccc2)on1 has a documented MNTC at 48 h of 100

In plain terms, O=C(Cc1cc(-c2ccccc2)on1)Nc1ccc(O)cc1 has a documented MNTC at 48 h of 1000

In plain terms, O=C(Cc1cc(-c2ccco2)on1)Nc1ccc(O)cc1 has a documented MNTC at 48 h of 1000

In plain terms, COC(=O)c1ccc(NC(=O)Cc2cc(-c3ccccc3)on2)cc1 has a documented MNTC at 48 h of 100

In plain terms, CCNC(=O)c1noc(-c2cc(C(C)C)c(O)cc2O)c1-c1ccc(CN2CCOCC2)cc1 has a documented MNTC at 48 h of 1000

In plain terms, O=C(Cc1cc(-c2ccccc2)on1)Nc1ccc(F)cc1 has a documented MNTC at 48 h of 500

In plain terms, O=C(Cc1cc(-c2ccccc2)on1)Nc1ccc(Cl)cc1 has a documented MNTC at 48 h of 100

In plain terms, O=C(Cc1cc(-c2ccccc2)on1)Nc1ccccc1 has a documented MNTC at 48 h of 1000
